Reported melting point values follow for various compounds

* C=CCn1c(-c2ccc(N3CCCC3=O)cc2)c(C#N)c2ccc(OC)cc21 [Compound 938] | 147 to 148 °C

## Input Bench note: what melting point did CCn1c(-c2ccc(N3CCCS3(=O)=O)cc2)c(C#N)c2ccc(OC(C)C)cc21 [Compound 666] show?
## Output 207 to 209 °C

## Input Return reported melting point; argument: CCn1c(C#Cc2ccc(N(C)S(=O)(=O)CC)cc2)c(C#N)c2ccc(OC)cc21 [Compound 157]
## Output 149 to 153 °C

## Input Look up melting point for this compound: CCn1c(-c2ccc3c(c2)N(C)C(=O)CO3)c(C#N)c2ccc(OC)cc21 [Compound 339]
## Output 215 to 219 °C
